B1: USP39 (parent)
chain: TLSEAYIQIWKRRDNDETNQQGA

# Variants of: B1
# ASSAY OVERVIEW: protein stability index of a GFP-peptide fusion (GPS, HEK-293T) (PSI 1-6); higher = more stable;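 note: lentivirally expressed fusions sorted by FACS into six bins by GFP to DsRed ratio, PSI derived from sequencing read proportions per bin multiplied by bin number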
# CONDITION NOTES: c terminus: native
Label rule, in plain words: protein stability index of 2 and up is rule met, under 2 is rule not met.

Exam item: decide whether the reported protein stability index for `Y6M` is at least 2.
rule met

Exam item: decide whether the reported protein stability index for `Q21E` is at least 2.
rule met

Exam item: decide whether the reported protein stability index for `T1F` is at least 2.
rule met

Exam item: decide whether the reported protein stability index for `E4K` is at least 2.
rule met

Exam item: decide whether the reported protein stability index for `A5Q` is at least 2.
rule met

Exam item: decide whether the reported protein stability index for `G22P` is at least 2.
rule met

Exam item: decide whether the reported protein stability index for `D14P` is at least 2.
rule met

Exam item: decide whether the reported protein stability index for `E17D` is at least 2.
rule met

Exam item: decide whether the reported protein stability index for `I9P` is at least 2.
rule met

Exam item: decide whether the reported protein stability index for `Y6A` is at least 2.
rule met

Exam item: decide whether the reported protein stability index for `Q20S` is at least 2.
rule met

Exam item: decide whether the reported protein stability index for `E4A` is at least 2.
rule met

Exam item: decide whether the reported protein stability index for `Q20V` is at least 2.
rule not met

Exam item: decide whether the reported protein stability index for `W10K` is at least 2.
rule met

Exam item: decide whether the reported protein stability index for `N15C` is at least 2.
rule met

Exam item: decide whether the reported protein stability index for `Q21L` is at least 2.
rule met

Exam item: decide whether the reported protein stability index for `G22H` is at least 2.
rule met

Exam item: decide whether the reported protein stability index for `N19E` is at least 2.
rule met

Exam item: decide whether the reported protein stability index for `Q20P` is at least 2.
rule not met

Exam item: decide whether the reported protein stability index for `D16A` is at least 2.
rule met

Exam item: decide whether the reported protein stability index for `D14E` is at least 2.
rule met

Exam item: decide whether the reported protein stability index for `D16R` is at least 2.
rule not met

Exam item: decide whether the reported protein stability index for `Q8P` is at least 2.
rule not met

Exam item: decide whether the reported protein stability index for `K11M` is at least 2.
rule met

Exam item: decide whether the reported protein stability index for `I7V` is at least 2.
rule met

Exam item: decide whether the reported protein stability index for `D16C` is at least 2.
rule met

Exam item: decide whether the reported protein stability index for `K11N` is at least 2.
rule met

Exam item: decide whether the reported protein stability index for `L2W` is at least 2.
rule met

Exam item: decide whether the reported protein stability index for `Q21C` is at least 2.
rule not met

Exam item: decide whether the reported protein stability index for `G22R` is at least 2.
rule met

Exam item: decide whether the reported protein stability index for `W10A` is at least 2.
rule met

Exam item: decide whether the reported protein stability index for `W10G` is at least 2.
rule met

Exam item: decide whether the reported protein stability index for `T1R` is at least 2.
rule met

Exam item: decide whether the reported protein stability index for `R13Q` is at least 2.
rule met

Exam item: decide whether the reported protein stability index for `K11D` is at least 2.
rule not met

Exam item: decide whether the reported protein stability index for `L2N` is at least 2.
rule met

Exam item: decide whether the reported protein stability index for `E17T` is at least 2.
rule not met

Exam item: decide whether the reported protein stability index for `W10M` is at least 2.
rule met

Exam item: decide whether the reported protein stability index for `Q20T` is at least 2.
rule met

Exam item: decide whether the reported protein stability index for `T1S` is at least 2.
rule met

Exam item: decide whether the reported protein stability index for `N19V` is at least 2.
rule met

Exam item: decide whether the reported protein stability index for `D16Q` is at least 2.
rule met

Exam item: decide whether the reported protein stability index for `S3T` is at least 2.
rule met

Exam item: decide whether the reported protein stability index for `N15A` is at least 2.
rule met

Exam item: decide whether the reported protein stability index for `R12W` is at least 2.
rule not met

Exam item: decide whether the reported protein stability index for `E4F` is at least 2.
rule met

Exam item: decide whether the reported protein stability index for `G22A` is at least 2.
rule met

Exam item: decide whether the reported protein stability index for `L2Y` is at least 2.
rule met

Exam item: decide whether the reported protein stability index for `R12Y` is at least 2.
rule not met

Exam item: decide whether the reported protein stability index for `G22I` is at least 2.
rule met

Exam item: decide whether the reported protein stability index for `T18K` is at least 2.
rule met

Exam item: decide whether the reported protein stability index for `Q21I` is at least 2.
rule met

Exam item: decide whether the reported protein stability index for `Q20G` is at least 2.
rule met

Exam item: decide whether the reported protein stability index for `L2C` is at least 2.
rule met

Exam item: decide whether the reported protein stability index for `Q8V` is at least 2.
rule not met

Exam item: decide whether the reported protein stability index for `T18A` is at least 2.
rule met

Exam item: decide whether the reported protein stability index for `N19Q` is at least 2.
rule met

Exam item: decide whether the reported protein stability index for `Q21F` is at least 2.
rule not met

Exam item: decide whether the reported protein stability index for `R12T` is at least 2.
rule met

Exam item: decide whether the reported protein stability index for `A5F` is at least 2.
rule not met

Exam item: decide whether the reported protein stability index for `N15I` is at least 2.
rule met

Exam item: decide whether the reported protein stability index for `E17A` is at least 2.
rule not met

Exam item: decide whether the reported protein stability index for `N15L` is at least 2.
rule not met

Exam item: decide whether the reported protein stability index for `G22D` is at least 2.
rule met

Exam item: decide whether the reported protein stability index for `T1P` is at least 2.
rule met

Exam item: decide whether the reported protein stability index for `I7C` is at least 2.
rule met

Exam item: decide whether the reported protein stability index for `N19L` is at least 2.
rule not met

Exam item: decide whether the reported protein stability index for `D14R` is at least 2.
rule met

Exam item: decide whether the reported protein stability index for `L2I` is at least 2.
rule met

Exam item: decide whether the reported protein stability index for `S3H` is at least 2.
rule met

Exam item: decide whether the reported protein stability index for `I9H` is at least 2.
rule met

Exam item: decide whether the reported protein stability index for `E17L` is at least 2.
rule not met

Exam item: decide whether the reported protein stability index for `D14A` is at least 2.
rule met

Exam item: decide whether the reported protein stability index for `K11H` is at least 2.
rule not met

Exam item: decide whether the reported protein stability index for `Y6T` is at least 2.
rule met

Exam item: decide whether the reported protein stability index for `Y6F` is at least 2.
rule met

Exam item: decide whether the reported protein stability index for `N19M` is at least 2.
rule met
